Recorded values, source ChEMBL document CHEMBL4428066.

test: Oral bioavailability in Beagle dog at 2 mg/kg after 0.25 to 48 hrs by LC/MS/MS analysis; assay type: ADME, organism-based, Canis lupus familiaris; settings: in vivo
Recorded metric: bioavailability (%)
Provide the reading as a plain figure in %.

For this molecule ( Cc1c(-c2ccc(C(N)=O)c3[nH]c4cc(C(C)(C)O)ccc4c23)cccc1-n1cnc2ccccc2c1=O ), measured bioavailability is 100

###

assay: Cmax in Balb/C mouse at 10 mg/kg, po; format: ADME, organism-based; parameters: dose 10 mg/kg, route oral; settings: in vivo
Recorded metric: Cmax (µM)
Provide the reading as a plain figure in µM.

Reference set, count: 5
- Sample smiles: "Cc1c(NC(=O)c2ccc(F)cc2)cccc1-c1ccc(C(N)=O)c2[nH]c3cc(C(=O)N4CCN(C)CC4)ccc3c12"
  Cmax / µM: 0.09
- Sample smiles: "Cc1c(-c2ccc(C(N)=O)c3[nH]c4cc(C(=O)N5CCN(C)CC5)ccc4c23)cccc1N1Cc2ccccc2C1=O"
  Cmax / µM: 0.178
- Sample smiles: "Cc1c(-c2ccc(C(N)=O)c3[nH]c4cc(C(C)(C)O)ccc4c23)cccc1-n1cnc2ccccc2c1=O"
  Cmax / µM: 8.96
- Sample smiles: "Cc1c(-c2ccc(C(N)=O)c3[nH]c4cc(C(C)(C)O)ccc4c23)cccc1-n1cnc2ccc(F)cc2c1=O"
  Cmax / µM: 9.77
- Sample smiles: "CC(C)(O)c1ccc2c(c1)[nH]c1c(C(N)=O)ccc(-c3cccc(-n4cnc5ccccc5c4=O)c3F)c12"
  Cmax / µM: 2.1

For this compound ( Cc1c(-c2ccc(C(N)=O)c3[nH]c4cc(C(C)(C)O)ccc4c23)cccc1-n1cnc2cccc(F)c2c1=O ), measured Cmax is 6.74

For this compound ( Cc1c(-c2ccc(C(N)=O)c3[nH]c4cc(C(C)(C)O)ccc4c23)cccc1-n1cnc2cc(F)ccc2c1=O ), measured Cmax is 8.06

For this compound ( Cc1c(NC(=O)c2ccc(F)cn2)cccc1-c1ccc(C(N)=O)c2[nH]c3cc(C(=O)N4CCN(C)CC4)ccc3c12 ), measured Cmax is 1.57

For this compound ( Cc1c(-c2ccc(C(N)=O)c3[nH]c4cc(CO)ccc4c23)cccc1-n1cnc2ccccc2c1=O ), measured Cmax is 4.65

For this compound ( Cc1c(-c2ccc(C(N)=O)c3[nH]c4cc(C(C)(C)O)ccc4c23)cccc1-n1cnc2c(F)cccc2c1=O ), measured Cmax is 6.85

For this compound ( Cc1c(-c2ccc(C(N)=O)c3[nH]c4cc(C(C)(C)O)ccc4c23)cccc1N1Cc2ccc(F)cc2C1=O ), measured Cmax is 4.41

For this compound ( Cc1c(NC(=O)c2ccc(F)cc2)cccc1-c1ccc(C(N)=O)c2[nH]c3cc(NC(C)C)ccc3c12 ), measured Cmax is 7.96
